Known pIC50 of a selection of compounds
Test system: HCT116
Test: cells
Type: cell-based
Details: assay number 25; basal; read-out: Basal_Viability ATP HCT116 summarized IC50
pIC50: −log10 of the molar value.

# compound, pIC50
measured = [
    ("CCCCOC(=O)c1ccc(N)cc1 [NCGC00016353-08]", "< 4.70"),
    ("COC(=O)c1ccccc1C(=O)OC [NCGC00090692-06]", "< 4.70"),
    ("CCCCCCCCCCCCCCCC(=O)OC/C=C(C)/C=C/C=C(C)/C=C/C1=C(C)CCCC1(C)C [NCGC00095056-04]", "< 4.70"),
    ("Cc1c(C)c2c(c(C)c1O)CC[C@@](C)(CCC[C@H](C)CCC[C@H](C)CCCC(C)C)O2 [NCGC00142625-10]", "< 4.70"),
    ("CCC(=O)c1ccc(O)cc1 [NCGC00018097-06]", "< 4.70"),
    ("O=C(O)CN(CCN(CC(=O)O)CC(=O)O)CCN(CC(=O)O)CC(=O)O [NCGC00015360-08]", "< 5.18"),
]
